test: JC-1 mitochondrial signal, unstimulated HepG2 cells – cell-based, JC-1 fluorescence, 24 h, 100 nL compound, profiling panel (AID 1167); settings: HepG2 mitochondrial potential, higher = more signal; also: test concentration not given here
measured-endpoint: z-score
Just the number, please.

These solved cases illustrate the format of a correct answer.
compound: COc1ccc(CCNC(=O)[C@@H]2c3ccccc3C(=O)N(Cc3ccccc3OC)[C@H]2c2ccc(CO)cc2)cc1
measured-endpoint: z-score
value-measured: 1.22
--
compound: CCCN1C(=O)[C@@]2(c3ccc([N+](=O)[O-])cc3)CC(=O)N(CC34CC5CC(CC(C5)C3)C4)[C@@H]2c2ccc(CO)cc21
measured-endpoint: z-score
value-measured: -0.885
--
compound: CO[C@H]1O[C@H](CO)[C@@H](OC(=O)Nc2ccc3c(c2)OCO3)[C@H](OC(=O)Nc2ccccc2-c2ccccc2)[C@H]1OC(=O)Nc1ccccc1-c1ccccc1
measured-endpoint: z-score
value-measured: 0.0319

Consider the additional compound presented here.
Request: Reported z-score for C=CC[C@]1(C(=O)NCC(O)CO)COC(c2ccc(OCCCO)cc2)=N1 (some centres undefined) : what is it?
Response: -0.512

---

target: Albumin (Bos taurus) (UniProt P02769); test: compounds binding labelled BSA control protein – biochemical, small-molecule microarray, Alexa647 label, 635/667 nm fluorescence, artefact control for SMM control protein annotation, profiling panel (AID 1118); settings: BSA-A647 binding, fluorescence 635 nm, higher = more signal;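 also: score merges 667 nm emission intensity and signal-to-noise per printed compound spot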
Sequence (P02769 whole entry, looked up): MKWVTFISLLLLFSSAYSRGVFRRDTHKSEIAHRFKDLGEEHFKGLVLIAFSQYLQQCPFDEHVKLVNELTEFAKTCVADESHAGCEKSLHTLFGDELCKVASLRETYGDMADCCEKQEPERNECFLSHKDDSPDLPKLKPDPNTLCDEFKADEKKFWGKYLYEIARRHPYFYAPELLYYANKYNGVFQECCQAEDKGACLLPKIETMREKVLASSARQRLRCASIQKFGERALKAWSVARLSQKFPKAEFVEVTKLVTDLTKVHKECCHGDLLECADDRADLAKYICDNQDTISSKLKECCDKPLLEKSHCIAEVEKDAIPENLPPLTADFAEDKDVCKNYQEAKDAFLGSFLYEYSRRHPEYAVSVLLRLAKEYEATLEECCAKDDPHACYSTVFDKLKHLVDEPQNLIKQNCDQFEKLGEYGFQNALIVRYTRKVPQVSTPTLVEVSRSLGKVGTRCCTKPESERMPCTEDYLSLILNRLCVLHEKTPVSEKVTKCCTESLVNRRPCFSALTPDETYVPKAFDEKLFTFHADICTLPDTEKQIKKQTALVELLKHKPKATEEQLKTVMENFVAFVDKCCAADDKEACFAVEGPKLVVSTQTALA
Entries and their composite z-score values follow.
Just the number, please.

molecule: COc1ccc([Si](C)(C)[C@H]2[C@H](CCO)O[C@@]3(C(=O)N(Cc4cccc(N(C=O)c5ccccc5)c4)c4ccccc43)[C@@H]2C)cc1
value-measured: 0.291
//
molecule: CN(C)CCCNC(=O)[C@@]1(C)c2ccccc2C(=O)N(Cc2ccc(OC(F)(F)F)cc2)[C@H]1c1ccc(CO)cc1
value-measured: 0.548
//
molecule: CCOC(=O)c1cn(C[C@H](Cc2ccccc2)NC(=O)N[C@H](CO)CCc2oc(C(C)=O)c(C(=O)OC)c2C(=O)OC)nn1
value-measured: 0.576
//
molecule: CCOC(=O)C1=CC[C@@H](c2ccc(OC)cc2)N(S(=O)(=O)c2ccc(C)cc2)[C@H]1c1ccc(C)cc1
value-measured: 0.446
//
molecule: COc1cc(C(O)C2C=CC3C(=O)N(c4ccccc4)C(=O)C3N2Nc2ccccc2F)cc(OC)c1OC (configuration not stated)
value-measured: 0.834
//
molecule: O=C1c2ccccc2[C@@]2(Cc3ccccc3N(Cc3ccccc3)C2=O)[C@H](c2ccc(CO)cc2)N1Cc1ccccc1Cl
value-measured: 0.705

Consider the additional molecule presented here.
Request: Give the reported composite z-score for CCCCCCc1nc(-c2ccc(-c3ccc(Cl)c(Cl)c3)o2)cc2c1[Si](C(C)C)(C(C)C)OC2 (system: Albumin (Bos taurus) (UniProt P02769)).
Response: 0.521

---

assay: blockers of DNA damage checkpoint Chk1 activation – imaging, HeLa, hydroxyurea, phospho-Chk1 nuclear intensity, primary screen (AID 1187); settings: hydroxyurea-induced phospho-Chk1 immunofluorescence imaging, higher = more signal; also: test concentration not given here
Classify by measured z-score: Yes if it is equal to or exceeds 0.002, No if it is smaller.

Reference set (3 entries):
compound: C=C(CCCC)/C(=C/C[C@H](OC(=O)c1ccncc1)c1cccc(OCCO)c1)c1cnc2ccccc2c1
category-label: Yes

compound: COCCOC(=O)N1C(=O)[C@@]2(c3cc(C#CCC(C(=O)OC)C(=O)OC)ccc31)[C@H](c1ccc(O)cc1)N1[C@H](c3ccccc3)[C@H](c3ccccc3)OC(=O)[C@H]1[C@@H]2C(=O)Nc1nc2ccccc2s1
category-label: Yes

compound: CC(C)C(CO)N1C(=O)[C@@H]2C3C(=O)OCCC/C=C\[C@H]3OC23C=CCN(Cc2ccccc2)C(=O)[C@@H]13 (some centres undefined)
category-label: No

Request: Identify whether the reported z-score of the following compound is 0.002 or greater: CC(C)[Si](C#CCCc1ccccc1)(O[C@H](c1ccccc1)c1cn(Cc2ccccc2)nn1)C(C)C
Response: No

Request: Do the same for CCCCC(O)C1C=CC2C(=O)N(c3ccccc3)C(=O)C2N1Nc1ccccc1 (centres undefined) please
Response: Yes

Request: Do the same for COCCOC(=O)N1C(=O)[C@@]2(c3cc(C#CCNC(N)=O)ccc31)[C@H](C(=O)Nc1nc3ccccc3s1)[C@H]1C(=O)O[C@H](c3ccccc3)[C@H](c3ccccc3)N1[C@@H]2c1ccccc1OCCO please
Response: No

Request: Do the same for C=CCN1C(=O)[C@]2(O[C@H](CCn3cc([C@H](O)c4ccccc4)nn3)[C@@H]([Si](C)(C)c3ccc(OC)cc3)[C@@H]2C)c2cc(NC(=O)c3ccc(OC)cc3)ccc21 please
Response: No

Request: Do the same for O=C(NCCN1CCOCC1)[C@@H]1c2ccccc2C(=O)N(Cc2ccc(OC(F)(F)F)cc2)[C@H]1c1ccc(CO)cc1 please
Response: No
